- target_desc: KOR (Homo sapiens, UniProt P41145)
- Sequence (P41145 whole entry): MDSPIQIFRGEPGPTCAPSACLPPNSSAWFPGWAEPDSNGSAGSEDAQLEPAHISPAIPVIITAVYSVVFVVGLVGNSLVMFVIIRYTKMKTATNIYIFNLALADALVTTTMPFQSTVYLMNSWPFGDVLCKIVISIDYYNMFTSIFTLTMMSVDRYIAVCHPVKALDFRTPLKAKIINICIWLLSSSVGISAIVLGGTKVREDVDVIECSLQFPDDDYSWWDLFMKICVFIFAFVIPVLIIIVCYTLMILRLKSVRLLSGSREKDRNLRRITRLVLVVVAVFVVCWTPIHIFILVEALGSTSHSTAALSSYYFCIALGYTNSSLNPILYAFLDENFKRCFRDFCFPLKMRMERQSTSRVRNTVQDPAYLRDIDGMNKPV
- test_summary: DISCOVERX β-arrestin […] assay, agonist mode (KOR DRx)
- Type: cell-based
- run_conditions: agonist; n = 3; read-out: Average Potency KOR DRx
Can you tell me EC50 for the items I'm about to list?

Ask: Dear colleague, I am looking for the recorded EC50 of the following compound: c1ccc(CSc2nnc(-c3ccccn3)n2Cc2ccco2)cc1
Result: > 17.9 µM

Ask: Dear colleague, I am looking for the recorded EC50 of the following compound: Fc1cccc(F)c1CSc1nnc(-c2ccccn2)n1Cc1ccco1
Result: > 20 µM

Ask: Dear colleague, I am looking for the recorded EC50 of the following compound: Cc1c(CSc2nnc(-c3ccccn3)n2Cc2ccco2)cccc1[N+](=O)[O-]
Result: 8.21 µM

Ask: Dear colleague, I am looking for the recorded EC50 of the following compound: N#Cc1ccc(CSc2nnc(-c3ccccn3)n2Cc2cccs2)cc1
Result: 4.64 µM

Ask: Dear colleague, I am looking for the recorded EC50 of the following compound: O=[N+]([O-])c1ccc(CSc2nnc(-c3ccccn3)n2Cc2ccco2)cc1
Result: 2.48 µM

Ask: Dear colleague, I am looking for the recorded EC50 of the following compound: CC(C)c1ccc(CSc2nnc(-c3ccccn3)n2Cc2ccco2)cc1
Result: 5.97 µM

Ask: Dear colleague, I am looking for the recorded EC50 of the following compound: FC(F)(F)c1ccc(CSc2nnc(-c3ccccn3)n2Cc2cccs2)cc1
Result: 1.23 µM

Ask: Dear colleague, I am looking for the recorded EC50 of the following compound: Cc1ccccc1CSc1nnc(-c2ccccn2)n1Cc1ccco1
Result: > 18.8 µM

Ask: Dear colleague, I am looking for the recorded EC50 of the following compound: CC(=O)Oc1ccc(CSc2nnc(-c3ccccn3)n2Cc2ccco2)cc1
Result: > 20 µM

Ask: Dear colleague, I am looking for the recorded EC50 of the following compound: Fc1cc(F)cc(CSc2nnc(-c3ccccn3)n2Cc2ccco2)c1
Result: 7.89 µM

Ask: Dear colleague, I am looking for the recorded EC50 of the following compound: c1ccc(CSc2nnc(-c3ccccn3)n2Cc2cccs2)cc1
Result: 13.8 µM

Ask: Dear colleague, I am looking for the recorded EC50 of the following compound: N#Cc1ccc(CSc2nnc(-c3ccccn3)n2Cc2ccco2)cc1
Result: 6.79 µM
